System: Staphylococcus sp.
measurement.description: in vitro antibacterial evaluation, MIC by broth dilution
Format: cell-based
test.conditions: broth dilution, 18 hours at 35° C.; strain SMITH GC 4543
assay.metric: MIC Staphylococcus aureus-SMITH (GC 4543) (µg/mL)
A number alone suffices; assume µg/mL.

In the examples that follow, each entry is paired with its recorded MIC Staphylococcus aureus-SMITH (GC 4543).
[
  {
    "compound": "CC(c1ccccc1)C1NC(=O)CNC(=O)C(CO)NC(=O)C(C(O)C2CNC(=N)N2C2OC(CO)C(O)C(O)C2O)NC(=O)C(C(O)C2CNC(=N)N2)NC(=O)C(Cc2ccc(OC3OC(CO)C(OC4OC5COC(C67CC8CC(CC(C8)C6)C7)OC5C(O)C4O)C(O)C3O)cc2)NC1=O (stereo not shown)",
    "measure.unit": "µg/mL",
    "reported.measurement": 2
  },
  {
    "compound": "CC(c1ccccc1)C1NC(=O)CNC(=O)C(CO)NC(=O)C(C(O)C2CNC(=N)N2C2OC(CO)C(O)C(O)C2O)NC(=O)C(C(O)C2CNC(=N)N2)NC(=O)C(Cc2ccc(OC3OC(CO)C(OC4OC5COC(c6cccc(Cl)c6)OC5C(O)C4O)C(O)C3O)cc2)NC1=O (stereo not shown)",
    "measure.unit": "µg/mL",
    "reported.measurement": 1
  },
  {
    "compound": "CC(C)CC(=O)OC1C(O)C(CO)OC(OC2C(CO)OC(Oc3ccc(CC4NC(=O)C(C(C)c5cccc(F)c5)NC(=O)CNC(=O)C(CO)NC(=O)C(C(O)C5CNC(=N)N5C5OC(CO)C(O)C(O)C5O)NC(=O)C(C(O)C5CNC(=N)N5)NC4=O)cc3)C(O)C2O)C1O (stereo not shown) [Example 264b]",
    "measure.unit": "µg/mL",
    "reported.measurement": 8
  }
]

Query the reported MIC Staphylococcus aureus-SMITH (GC 4543) for Staphylococcus sp.; item: CCCC(CCC)C(=O)OCC1OC(OC2C(CO)OC(Oc3ccc(CC4NC(=O)C(C(C)c5ccccc5)NC(=O)CNC(=O)C(CO)NC(=O)C(C(O)C5CNC(=N)N5C5OC(CO)C(O)C(O)C5O)NC(=O)C(C(O)C5CNC(=N)N5)NC4=O)cc3)C(O)C2O)C(O)C(O)C1O (stereo not shown) [Example 99c]
1
